Reference source: PubChem BioAssay (NCI)

tested on: NCI-H23 lung; assay: NCI-60 one-dose screen, 48 h (100 = growth as untreated, 0 = no growth, -100 = all killed); conditions: 10 µM unless noted
Compounds without any hit were thinned out: in the full panel of roughly 83,000, 20% have a hit.
experimentalEndpoint: growth (%)
Return type: number; implicit unit %.

compound	experimentalTarget	growth [%]
COc1ccc(CC(C#N)c2cc3ccccc3[nH]2)cc1 (stereo not given)	NCI-H23 lung	87.1
CC(C)(C)c1cc(-c2nc3ccc(N4CCN(S(C)(=O)=O)CC4)cc3[nH]2)cc(C(C)(C)C)c1O	NCI-H23 lung	96.2
CC1=Nc2cnc(Nc3ccc(OCCN4CCCC4)cc3)nc2Nc2ccccc21	NCI-H23 lung	80.4
Clc1ccc(CNc2c3ccccc3nc3ccccc23)cc1	NCI-H23 lung	53
CC1(C)CCC(S(=O)(=O)c2ccc3c(c2)/C(=N\O)c2cc(S(=O)(=O)N4CCC(O)(c5cccc(C(F)(F)F)c5)CC4)ccc2-3)CC1	NCI-H23 lung	-48.7

Prompt: Quote growth reported for Cc1ccc(-c2nc3nc(-c4ccc(F)cc4)nc(N4CCNCC4)c3o2)cc1 please.
Completion: 94.4

Prompt: Return value of growth for input COc1cc(OC)c2sc(-c3ccc(-n4cncc4-c4ccc(OC)c(OC)c4)cc3)nc2c1 , no commentary.
Completion: 66.1

Prompt: Specify growth for O=C1N(Cc2ccccc2Cl)c2ccccc2C12NN=C(c1cccc(Cl)c1)S2 (stereo not given) and stop.
Completion: -18.7

Prompt: Consider the compound C[C@@H]1CCC[C@H]1CC(N)C(=O)O (stereo not given in full) . State its measured growth.
Completion: 97.2

Prompt: Query growth for CC1=NN(c2nc(SCC(=O)Nc3nc4ccc(C)cc4s3)nc(-c3ccccc3)c2C#N)C(=O)C1
Completion: 105

Prompt: Read the entry CCCCOC(=O)OCc1cc(=O)c(O)co1 and write its reported growth.
Completion: 95.3

Prompt: Kindly indicate its recorded growth. Item: O=c1oc2c(cnc3ccccc32)cc1-c1ccsc1
Completion: 99.8
